Tested on: CHO
Experiment: % viability of CHO cells (MTT); higher = less toxic
Conditions: 2 µM; 48 h
PROPERTY: % viability of CHO cells
In your response, the unit should come after the numeric value.

Look over these answered cases.
CCCCN1C[C@H](O)[C@@H](O)[C@H](O)[C@H]1CO
104%
CC(C)(C)c1ccc(C(=O)NC(=O)N2CCCc3ccccc32)cc1
94.6%
CN(C)[C@@H]1C(=O)C(C(N)=O)=C(O)[C@@]2(O)C(=O)C3=C(O)c4c(O)c(NC(=O)CN5CCCC5)cc(F)c4C[C@H]3C[C@@H]12
99.3%

Please turn your attention to the following entry.
Q) Recorded % viability of CHO cells of Cc1c(F)cccc1NC(=O)Nc1ccc(Cl)c(S(=O)(=O)[C@H]2CCCNC2)c1O , please.
A) 115%

* * *

System: CHO
Test: % viability of CHO cells (MTT); higher = less toxic
Settings: 20 µM; 48 h
Measured % viability of CHO cells values are reported for all entries that follow.
Please state the figure in %; there is no need to write the unit.

CCCCCc1ccc(C(=O)NCCn2cc(CCCCCc3cnc(N)[nH]3)nn2)cc1
153

Q) Recorded % viability of CHO cells of O=C(N[C@H](Cc1cccc2ccccc12)C(=O)NCCc1c[nH]cn1)C1Cc2ccccc2C1 , please.
A) 97.8

Q) Recorded % viability of CHO cells of COCCn1cnc2c(=O)[nH]c(Nc3ccccc3)nc21 , please.
A) 63.9

Q) Recorded % viability of CHO cells of O=C1CCC(N2C(=O)c3ccccc3C2=O)C(=O)N1 (stereo not given) , please.
A) 120

Q) Recorded % viability of CHO cells of COC(=O)Nc1nc2c(C)cccc2[nH]1 , please.
A) 86.1

Q) Recorded % viability of CHO cells of NC1C2CC3CC(C2)CC1C3 (stereo not given) , please.
A) 70.3

* * *

Tested on: Plasmodium falciparum NF54 asexual blood stage
Assay: % inhibition of asexual blood stage proliferation (pLDH); higher = more inhibition
Conditions: 20 µM; 72 h
PROPERTY: % inhibition of asexual blood stage proliferation (%)
Please state the figure in %; there is no need to write the unit.

Look over these answered cases.
Cc1onc(-c2ccccc2)c1-c1ccc(S(N)(=O)=O)cc1
77.5
CC(C)(C)NC(=O)[C@@H]1CN(Cc2cnc3occc3c2)CCN1C[C@@H](O)C[C@@H](Cc1ccccc1)C(=O)N[C@H]1c2ccccc2C[C@H]1O
55.9
O=C(c1nc2c(C(F)(F)F)cc(C3CC3)cn2c1Cl)N1CCN([C@H]2CC[C@H](O)CC2)C(=O)C1
46.1

Q) Recorded % inhibition of asexual blood stage proliferation of Clc1cc2nc(C3CCNCC3)n(Cc3ccc(CNCCc4cnc[nH]4)cc3)c2cc1Cl , please.
A) 98

* * *

Measured % inhibition of gametocyte viability values are reported for all entries that follow.
System: Plasmodium falciparum NF54 stage IV/V gametocytes
Assay: % inhibition of gametocyte viability (ATP bioluminescence); higher = more inhibition
Conditions: 5 µM; 24 h

Look over these answered cases.
Cc1nc2ccc(Oc3ccccc3)cc2c2c1CCN2CCc1ccccc1
93.2%
O=C1NC(=S)N/C1=C\c1cc(Br)cc(Br)c1O
< 0%
C[C@@H]1O[C@@H]1P(=O)(O)O
< 0%

Q) Recorded % inhibition of gametocyte viability of CC(=O)N1CCN(c2ccc(OCC3COC(Cn4ccnc4)(c4ccc(Cl)cc4Cl)O3)cc2)CC1 (stereo unspecified) , please.
A) < 0%

Q) Recorded % inhibition of gametocyte viability of CCc1cc(Nc2cc(=O)n(CCN3CCN(C(=O)c4ccccc4)CC3)c(=O)[nH]2)ccc1C , please.
A) < 0%

Q) Recorded % inhibition of gametocyte viability of Nc1nc(F)nc2c1ncn2[C@H]1O[C@@H](CO)[C@H](O)[C@@H]1O , please.
A) < 0%

Q) Recorded % inhibition of gametocyte viability of O=c1[nH]c(=O)n(Cc2cccc(Oc3ccccc3)c2)cc1Nc1ccccc1 , please.
A) < 0%

Q) Recorded % inhibition of gametocyte viability of Fc1ccc(-n2cc(Cn3c(-c4cccc(F)c4)nc4ccccc43)nn2)cc1 , please.
A) < 0%

Q) Recorded % inhibition of gametocyte viability of OCCC#Cc1nc(-c2ccc(F)cc2)c(-c2ccncc2)n1CCCc1ccccc1 , please.
A) 8.02%

Q) Recorded % inhibition of gametocyte viability of O=C(NC1CCCc2c1[nH]c1ccc(Cl)cc21)c1ccccn1 (stereo unspecified) , please.
A) < 0%

Q) Recorded % inhibition of gametocyte viability of Cc1c[nH]c(=O)nc1NCc1ccccc1 , please.
A) < 0%

Q) Recorded % inhibition of gametocyte viability of N=C(N)c1ccc(COc2ccc(Cl)cc2)cc1 , please.
A) 4.27%

Q) Recorded % inhibition of gametocyte viability of O=C(Nc1ncc(Cc2cccc3ccccc23)s1)C1CCCCC1 , please.
A) < 0%

Q) Recorded % inhibition of gametocyte viability of Nc1cc(N)c2nc(-c3ccccc3)c(Nc3ccc(F)cc3)nc2c1 , please.
A) 19.7%

Q) Recorded % inhibition of gametocyte viability of N#CCN1C(=O)COc2cc(F)c(N3C(=O)c4ccccc4C3=O)cc21 , please.
A) < 0%

Q) Recorded % inhibition of gametocyte viability of CCc1oc2ccccc2c1C(=O)c1ccc(O)cc1 , please.
A) < 0%

Q) Recorded % inhibition of gametocyte viability of Nc1nc(-c2ccccc2)nc2c1ncn2[C@@H]1O[C@H](COS(=O)(=O)NC(=O)c2ccccc2O)[C@@H](O)[C@H]1O , please.
A) < 0%

Q) Recorded % inhibition of gametocyte viability of C[C@@H](NC(=O)c1ccccc1-c1ccccc1)B(O)O , please.
A) < 0%

Q) Recorded % inhibition of gametocyte viability of O=c1cc(NCCCN[C@@H]2CCOc3c(Br)cc(Br)cc32)[nH]c2ccsc12 , please.
A) < 0%

Q) Recorded % inhibition of gametocyte viability of Cc1c(F)cccc1NC(=O)Nc1ccc(Cl)c(S(=O)(=O)[C@H]2CCCNC2)c1O , please.
A) < 0%

Q) Recorded % inhibition of gametocyte viability of O=C(NCc1ncc(C(F)(F)F)cc1Cl)c1c(Cl)cccc1Cl , please.
A) < 0%

The reported numbers originate from the supplement of paper PMC7801607.
